# assaySummary: In vivo pharmacokinetic studies in rats
# Parameters: species or system SD rats
# testConditions: SD, rat, plasma, po, 10 mg/kg, rats, repeat 10 mg/kg PO QD, Day 5, individual animal
experimentalReadout: half-life at 5 days (min)
Give just the number in min; leave the unit off.

stdin: Give its half-life at 5 days value. Item: N[C@@H](c1csc(C(=O)c2c[nH]c3cc(F)ccc23)n1)C(F)(F)F
stdout: 76.8

###

# assaySummary: In vivo pharmacokinetic studies in rats
# Design: species or system SD rats
# testConditions: male, Sprague-Dawley (SD), rat, plasma, po, 30 mg/kg, male rats, repeat 30 mg/kg oral dose, Day 1, Mean row; read-out: Tmax^a
experimentalReadout: Tmax at 1 day

stdin: Give its Tmax at 1 day value. Item: CC[C@H](O)c1csc(C(=O)c2c[nH]c3cc(F)ccc23)n1 [ARI-164]
stdout: 1 h

meta.source: patent US11390621B2
